Molecular target: GDP-loaded KRAS-G12V (Homo sapiens, UniProt P01116, G12V)
Sequence (P01116 1-188 isoform P01116-2 G12V): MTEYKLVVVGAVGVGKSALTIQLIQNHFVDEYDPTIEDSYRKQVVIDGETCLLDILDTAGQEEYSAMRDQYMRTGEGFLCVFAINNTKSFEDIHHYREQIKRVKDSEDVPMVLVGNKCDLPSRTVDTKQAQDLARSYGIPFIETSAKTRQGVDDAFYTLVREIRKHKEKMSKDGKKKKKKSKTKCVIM
Test: KRAS (GDP) biochemical TR-FRET probe displacement assay, G12V
Conditions: 2 hours at room temperature
reported.metric: IC50

Example entries begin here.
- Fc1cc2c(N3CC4(F)CCC(F)(C3)N4)nc(OC[C@@]34CCCN3C[C@H](F)C4)nc2c(F)c1-c1csc2ncnc(Cl)c12: > 100 nM
- Cc1cc(N)nc(-c2c(Cl)cc3c(N4CC5(F)CCC(F)(C4)N5)nc(OC[C@@]45CCCN4C[C@H](F)C5)nc3c2F)c1C(F)(F)F: > 100 nM
- Cc1cc(-c2c(F)cc3c(N4CC5(F)CCC(F)(C4)N5)nc(OC[C@@]45CCCN4C[C@H](F)C5)nc3c2F)c2cccnc2c1N: > 100 nM
- Fc1ccc2nc(C(F)(F)F)c(-c3c(F)cc4c(N5CC6(F)CCC(F)(C5)N6)nc(OC[C@@]56CCCN5C[C@H](F)C6)nc4c3F)n2c1: > 100 nM
- Cc1cc(-c2c(Cl)cc3c(N4CC5(F)CCC(F)(C4)N5)nc(OC[C@@]45CCCN4C[C@H](F)C5)nc3c2F)c2cccnc2c1N: > 100 nM
- Nc1nc2c(-c3c(Cl)cc4c(N5CC6(F)CCC(F)(C5)N6)nc(OC[C@@]56CCCN5C[C@H](F)C6)nc4c3F)ccc(F)c2s1: > 82.3 nM
- C#Cc1c(F)ccc2cc(N)nc(-c3c(Cl)cc4c(N5CC6(F)CCC(F)(C5)N6)nc(OC[C@@]56CCCN5C[C@H](F)C6)nc4c3F)c12: > 100 nM

Then this compound:
IN: Using the record for `Cc1cc(N)nc(-c2c(F)cc3c(N4CC5(F)CCC(F)(C4)N5)nc(OC[C@@]45CCCN4C[C@H](F)C5)nc3c2F)c1C(F)(F)F` , report its IC50.
OUT: > 100 nM
